- System: Zone of skin
- assayContext: human
- Description: Permeability across human Skin
log Kp reference
Answer with the value's number alone.

Illustrative cases are given below, each with its answer.
{"columns": ["compound", "log Kp"],
 "data": [
  ["O=[N+]([O-])c1ccc(O)cc1", -5.81],
  ["O=C(O)Cc1ccccc1Nc1c(Cl)cccc1Cl", -5.3],
  ["c1ccc2cnccc2c1", -5.33]
]}

Query :: For the compound shown here, COC(=O)c1cccnc1 [METHYL NICOTINATE] , give the reported log Kp.
Result :: -6.04

Query :: For the compound shown here, `CC(=O)[C@H]1CC[C@H]2[C@@H]3CCC4=CC(=O)CC[C@]4(C)[C@H]3CC[C@]12C` , give the reported log Kp.
Result :: -5.08
